meta.source: patent US20240059789A1

Entries and their pEC50
target: T1, Human PSMA on prostate cancer cell lines (C4-2B, 22RV1) (human, UniProt Q04609 1-750); test: flow cytometry on 22RV1 cells
T1 construct: Endogenous PSMA of the human cell lines; also called PSMA+ cells; PSMA-expressing cell lines
T1 sequence (Q04609 whole entry): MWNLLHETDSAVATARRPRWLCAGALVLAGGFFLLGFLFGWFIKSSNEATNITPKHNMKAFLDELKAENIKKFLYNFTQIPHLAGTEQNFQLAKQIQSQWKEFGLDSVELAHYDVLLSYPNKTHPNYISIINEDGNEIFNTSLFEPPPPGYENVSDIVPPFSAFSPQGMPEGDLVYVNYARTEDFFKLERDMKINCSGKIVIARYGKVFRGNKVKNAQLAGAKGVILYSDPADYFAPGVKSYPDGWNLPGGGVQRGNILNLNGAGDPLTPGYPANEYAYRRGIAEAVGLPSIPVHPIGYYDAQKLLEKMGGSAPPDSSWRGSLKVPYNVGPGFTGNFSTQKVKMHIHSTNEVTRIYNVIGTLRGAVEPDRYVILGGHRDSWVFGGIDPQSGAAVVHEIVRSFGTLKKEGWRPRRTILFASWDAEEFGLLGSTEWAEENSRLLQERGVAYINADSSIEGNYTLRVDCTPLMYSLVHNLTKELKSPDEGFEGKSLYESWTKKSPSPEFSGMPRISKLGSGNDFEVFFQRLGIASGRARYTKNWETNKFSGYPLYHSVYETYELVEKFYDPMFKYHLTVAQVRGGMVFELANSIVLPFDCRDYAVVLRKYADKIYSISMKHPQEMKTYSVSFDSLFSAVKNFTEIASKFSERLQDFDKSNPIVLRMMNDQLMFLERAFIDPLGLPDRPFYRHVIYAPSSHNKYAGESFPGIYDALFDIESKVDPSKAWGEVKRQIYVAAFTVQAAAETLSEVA
pEC50: −log10 of the molar value.
MEASURED_QUANTITY: pEC50

PSMB898 (antibody, human IgG1, lambda, L234A L235A, V domains shown) VH: EVQLVESGGGLVQPGGSLRLSCAASGFTFSSYAMSWVRQAPGKGLEWVSAISGGSGSTYYADSVKGRFTISRDNSKNTLYLQMNSLRAEDSAVYYCAKDGVGATPYYFDYWGQGTLVTVSS VL: QSVLTQPPSVSAAPGQKVTISCSGSSSNIGINYVSWYQQLPGTAPKLLIYDNNKRPSGIPDRFSGSKSGTSATLGITGLQTGDEADYYCGTWDSSLSAVVFGGGTKLTVLG | 8.68
PSMB895 (antibody, human IgG1, lambda, L234A L235A, V domains shown) VH: EVQLVESGGGLVQPGGSLRLSCAASGFTFSSYAMSWVRQAPGKGLEWVSAISGGIGSTYYADSVKGRFTISRDNSKNTLWLQMNSLRAEDTAVYYCAKDGVGATPYYFDYWGQGTLVTVSS VL: QSVLTQPPSVSAAPGQKVTISCSGSSSNIGNNYVSWYQQLPGTAPKLLIYDNNKRPSGIPDRFSGSKSGTSATLGITGLQTGDEADYYCGTWDSSLSAYVFGTGTKVTVLG | 8.77
PSMB890 (antibody, human IgG1, lambda, L234A L235A, V domains shown) VH: EVQLVESGGGLVKPGGSLRLSCAASGFTFSRYNMNWVRQAPGKGLEWVSSINSNSRYIYYADSVKGRFTISRDSAKNSLYLQMNSLRAEDTAVYYCAKTMGDYYYYYGMDVWGQGTTVTVSS VL: SSELTQPPSVSGAPGQRVTISCAGSLSNIGAGYDVHWYQQLPGTAPKLLIYGNINRLSGVPERFSGSKSGTSASLAITGLQAEDGADYYCQSYDSSLSSYVFGTGTKVTVLG | 8.77
PSMB899 (antibody, human IgG1, lambda, L234A L235A, V domains shown) VH: EVQLVESGGGLVQPGGSLRLSCTASGFIFSSYAMSWVRQAPGKGLEWVSAISGGYGAPYYADTVKGRFTISRDNSKNTLYLQMNSLRAEDTAVYYCAKDGVGATPYYFDDWGQGILVTVSS VL: QSVLTQPPSVSAAPGQKVTISCSGSSSNIGNNYVSWYQQLPGTAPKLLIFDNNKRPSGIPDRFSGSKSGTSATLGITGLQTGDEADYYCGTWDSSLSAYVFGTGTKVTVLG | 8.99
PSMB896 (antibody, human IgG1, lambda, L234A L235A, V domains shown) VH: EVQLVESGGGLVQPGGSLRLSCAASGFTFSSYAMSWVRQAPGKGLEWVSAISGGIGSTYYADSVKGRFTISRDNSKNTLWLQMNSLRAEDTAVYYCAKDGVGATPYYFDYWGQGTLVTVSS VL: QSVLTQPPSVSAAPGQKVTISCSGSSSNIGINYVSWYQQLPGTAPKLLIYDNNKRPSGIPDRFSGSKSGTSATLGITGLQTGDEADYYCGTWDSSLSAVVFGGGTKLTVLG | 8.91
PSMB897 (antibody, human IgG1, lambda, L234A L235A, V domains shown) VH: EVQLVESGGGLVQPGGSLRLSCAASGFTFSSYAMSWVRQAPGKGLEWVSAISGGSGSTYYADSVKGRFTISRDNSKNTLYLQMNSLRAEDSAVYYCAKDGVGATPYYFDYWGQGTLVTVSS VL: QSVLTQPPSVSAAPGQKVTISCSGSSSNIGNNYVSWYQQLPGTAPKLLIYDNNKRPSGIPDRFSGSKSGTSATLGITGLQTGDEADYYCGTWDSSLSAYVFGTGTKVTVLG | 8.65
